Reference for the values: patent US20200093786A1

System: CD138+ cells from myeloma patients
Assay: XTT cell viability and combination index, CD138+ cells from bone marrow aspirate of MM patients (Example 8)
Assay type: cell-based, human
Conditions: Homo sapiens; CD138+ cells of patients 1 to 3, 48 hours, FIG. 4D; read-out: dose that caused 50% of MM cell death (IC50)
Procedure: This conversion only occurs in viable cells. Peripheral blood samples from MM patients and healthy donors are processed by Ficoll density gradient centrifugation to isolate peripheral blood mononuclear cells (PBMCs). […] For co-culture assays MM cells are stained with CFSE, cultured in the presence of HS-5 human stroma cell line, treated with the drugs and their viability is evaluated by counterstained with PI and cell viability evaluation by flow cytometer analysis. […]
metric: IC50

# input Given the entry C=C(C)[C@@H]1CCC(C)=C[C@H]1c1c(O)cc(CCCCC)cc1O [CBD, Cannabidiol] , report its measured IC50.
# output 6.7 to 12.5 µM
